B1: SMTNL2 (parent)
chain: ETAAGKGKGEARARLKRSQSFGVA

Variants of: B1
testProtocol: protein stability index of a GFP-peptide fusion (GPS, HEK-293T) (PSI 1-6); higher = more stable;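 further: lentivirally expressed fusions sorted by FACS into six bins by GFP to DsRed ratio, PSI derived from sequencing read proportions per bin multiplied by bin number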
reportedConditions: c terminus: a fixed tail appended
reportedMetric: protein stability index
Please reply with the value in numeric form only.

In: Entry under review: S18Y . Reported protein stability index?
Out: 2.89

In: Could you do the same for K6A , please?
Out: 4.62

In: Could you do the same for S20A , please?
Out: 4.56

In: Could you do the same for G5E , please?
Out: 4.79

In: Could you do the same for E1F , please?
Out: 3.21

In: Could you do the same for E1C , please?
Out: 4.05

In: Could you do the same for K6G , please?
Out: 3.58
